system: HCC44; experiment: 72-hour CellTiter-Glo 2.0 growth inhibition screen (single agent, 9x9 combination dose matrix); assay type: cell-based; conditions: HCC44, Lung; growth inhibition (GI), AUC, single agent, 72 h
Where Response Area equals or exceeds 3, the correct label is yes (1); where it does not, the label is no (0).

CN1CC[C@@H](c2c(O)cc(O)c3c(=O)cc(-c4ccc(C(F)(F)F)cc4Cl)oc23)[C@@H]1CO: yes (1)
CC[C@@H]1C(=O)N(C)c2cnc(Nc3ccc(C(=O)N[C@H]4CC[C@H](N5CCN(CC6CC6)CC5)CC4)cc3OC)nc2N1C(C)C: yes (1)

### Prompt Item `CN1CCN(c2ccc(OC(F)(F)F)c(Nc3ncc4c(n3)-c3c(c(C(N)=O)nn3CCO)CC4)c2)CC1` with Response Area of 3 or above?
### Response yes (1)

### Prompt Item `C=CC(=O)N1CCN(c2nc(=O)n(-c3c(C)ccnc3C(C)C)c3nc(-c4c(O)cccc4F)c(F)cc23)[C@@H](C)C1` with Response Area of 3 or above?
### Response no (0)

###

system: Gp2D; test: 72-hour CellTiter-Glo 2.0 growth inhibition screen (single agent, 9x9 combination dose matrix); assay type: cell-based; details: Gp2D, Colorectal; Additional Single Agent Responses (inhibition, % I), 72 h
ASSAY_ENDPOINT: Response Area
A bare number is all that is needed in reply.

# example entries with known answers
CN1CC[C@@H](c2c(O)cc(O)c3c(=O)cc(-c4ccc(C(F)(F)F)cc4Cl)oc23)[C@@H]1CO: 2.94
C=CC(=O)N1CCN(c2nc(=O)n(-c3c(C)ccnc3C(C)C)c3nc(-c4c(O)cccc4F)c(F)cc23)[C@@H](C)C1: 0.42
CC[C@@H]1C(=O)N(C)c2cnc(Nc3ccc(C(=O)N[C@H]4CC[C@H](N5CCN(CC6CC6)CC5)CC4)cc3OC)nc2N1C(C)C: 4.53

The record that follows has no Response Area shown yet.
### Prompt Given the compound `CN1CCN(c2ccc(OC(F)(F)F)c(Nc3ncc4c(n3)-c3c(c(C(N)=O)nn3CCO)CC4)c2)CC1` , what is its reported Response Area?
### Response 4.29

###

Experiment: PK of voruciclib, 2 weeks of daily dosing followed by 1 week without dosing in a 21-day cycle (Table 3)
Assay type: in vivo, human
Conditions: human, plasma, oral, 600 mg, Day 13, 2 weeks daily dosing/1 week off, mean; read-out: AUC0-24
Excerpt: Voruciclib half life is designated as t½ in the tables (expressed in hours). Voruciclib volume of distribution is designated as Vz/F (expressed in liters).
ASSAY_ENDPOINT: AUC(0-t) (ng·h/mL)
Kindly answer with a numeric value in ng·h/mL, unit omitted.

### Prompt Given the compound CN1CC[C@@H](c2c(O)cc(O)c3c(=O)cc(-c4ccc(C(F)(F)F)cc4Cl)oc23)[C@@H]1CO [Voruciclib] , what is its reported AUC(0-t)?
### Response 43500

###

test: PK of voruciclib, 2 weeks of daily dosing followed by 1 week without dosing in a 21-day cycle (Table 3); assay type: in vivo, human; conditions: human, plasma, oral, 850 mg, Day 13, 2 weeks daily dosing/1 week off, median
ASSAY_ENDPOINT: Tmax (h)
Kindly answer with a numeric value in h, unit omitted.

### Prompt Given the compound CN1CC[C@@H](c2c(O)cc(O)c3c(=O)cc(-c4ccc(C(F)(F)F)cc4Cl)oc23)[C@@H]1CO [Voruciclib] , what is its reported Tmax?
### Response 5

###

test: PK of voruciclib, daily dosing continuously (Table 4); format: in vivo; conditions: human, plasma, oral, 250 mg, Day 15, daily dosing continuously, median
ASSAY_ENDPOINT: Tmax (h)
Kindly answer with a numeric value in h, unit omitted.

### Prompt Given the compound `CN1CC[C@@H](c2c(O)cc(O)c3c(=O)cc(-c4ccc(C(F)(F)F)cc4Cl)oc23)[C@@H]1CO` , what is its reported Tmax?
### Response 4

###

assay: PK of voruciclib, 2 weeks of daily dosing followed by 1 week without dosing in a 21-day cycle (Table 3); format: in vivo, human; conditions: human, plasma, oral, 600 mg, Day 1, 2 weeks daily dosing/1 week off, median
ASSAY_ENDPOINT: Tmax

### Prompt Given the molecule `CN1CC[C@@H](c2c(O)cc(O)c3c(=O)cc(-c4ccc(C(F)(F)F)cc4Cl)oc23)[C@@H]1CO` , what is its reported Tmax?
### Response 4 h

###

Measured EC50 of individual entries
system: SW48 KRAS (G12D/+); assay: 72-hour CellTiter-Glo 2.0 growth inhibition screen (single agent, 9x9 combination dose matrix); assay type: cell-based; details: Homo sapiens, SW48, 72 h, SW48 KRAS (G12D/+), Colorectal; growth inhibition (GI) curve, single agent, 72 h; read-out: EC50
Kindly answer with a numeric value in nM, unit omitted.

### Prompt Given the compound CN1CCN(c2ccc(OC(F)(F)F)c(Nc3ncc4c(n3)-c3c(c(C(N)=O)nn3CCO)CC4)c2)CC1 [Onvansertib] , what is its reported EC50?
### Response 15.7

### Prompt Given the compound CC[C@@H]1C(=O)N(C)c2cnc(Nc3ccc(C(=O)N[C@H]4CC[C@H](N5CCN(CC6CC6)CC5)CC4)cc3OC)nc2N1C(C)C [Volasertib] , what is its reported EC50?
### Response 4.2

###

assay: PK of voruciclib, daily dosing continuously (Table 4); type: in vivo; conditions: human, plasma, oral, 250 mg, Day 15, daily dosing continuously, mean; read-out: t½ (converted)
ASSAY_ENDPOINT: half-life (min)
Kindly answer with a numeric value in min, unit omitted.

### Prompt Given the compound `CN1CC[C@@H](c2c(O)cc(O)c3c(=O)cc(-c4ccc(C(F)(F)F)cc4Cl)oc23)[C@@H]1CO` , what is its reported half-life?
### Response 2320

###

Assay: PK of voruciclib, daily dosing continuously (Table 4)
Assay type: in vivo
Conditions: human, plasma, oral, 75 mg, Day 15, daily dosing continuously, mean; read-out: t½ (converted)
Excerpt: Voruciclib half life is designated as t½ in the tables (expressed in hours). Voruciclib volume of distribution is designated as Vz/F (expressed in liters).
ASSAY_ENDPOINT: half-life

### Prompt Given the molecule `CN1CC[C@@H](c2c(O)cc(O)c3c(=O)cc(-c4ccc(C(F)(F)F)cc4Cl)oc23)[C@@H]1CO` , what is its reported half-life?
### Response 15 days

###

test system: NCI-H2030; experiment: 72-hour CellTiter-Glo 2.0 growth inhibition screen (single agent, 9x9 combination dose matrix); format: cell-based; settings: NCl-H2030, Lung; Additional Single Agent Responses (inhibition, % I), 72 h
ASSAY_ENDPOINT: EC50 (nM)
Kindly answer with a numeric value in nM, unit omitted.

### Prompt Given the compound `CN1CC[C@@H](c2c(O)cc(O)c3c(=O)cc(-c4ccc(C(F)(F)F)cc4Cl)oc23)[C@@H]1CO` , what is its reported EC50?
### Response 1050

###

System: SW837
Test: 72-hour CellTiter-Glo 2.0 growth inhibition screen (single agent, 9x9 combination dose matrix)
Type: cell-based
Details: SW837, Colorectal; Additional Single Agent Responses (inhibition, % I), 72 h
Method: Growth inhibition was determined using a 72-hour CellTiter-Glo®2.0 proliferation assay. Combination format was a 9×9 dose matrix. […] Results have been supplied as both Chalice Analyzer files (.mcc) and raw luminescence data. Cell lines that have been preserved in liquid nitrogen are thawed and expanded in growth media (see Appendix I). […] Assay plates are incubated with compound for 3 days and are then analyzed using CellTiter-Glo 2.0. […]
ASSAY_ENDPOINT: IC50 (µM)
Kindly answer with a numeric value in µM, unit omitted.

### Prompt Given the molecule CN1CC[C@@H](c2c(O)cc(O)c3c(=O)cc(-c4ccc(C(F)(F)F)cc4Cl)oc23)[C@@H]1CO [MEI-522(Voruciclib)] , what is its reported IC50?
### Response 2.09

###

Test system: LS-513
Assay: 72-hour CellTiter-Glo 2.0 growth inhibition screen (single agent, 9x9 combination dose matrix)
Type: cell-based
Details: LS-513, Colorectal; Additional Single Agent Responses (inhibition, % I), 72 h
Protocol: Growth inhibition was determined using a 72-hour CellTiter-Glo®2.0 proliferation assay. Combination format was a 9×9 dose matrix. […] Results have been supplied as both Chalice Analyzer files (.mcc) and raw luminescence data. Cell lines that have been preserved in liquid nitrogen are thawed and expanded in growth media (see Appendix I). […] Assay plates are incubated with compound for 3 days and are then analyzed using CellTiter-Glo 2.0. […]
Measured Response Area of individual entries
A bare number is all that is needed in reply.

# example entries with known answers
CN1CCN(c2ccc(OC(F)(F)F)c(Nc3ncc4c(n3)-c3c(c(C(N)=O)nn3CCO)CC4)c2)CC1 [Onvansertib]: 3.29
C=CC(=O)N1CCN(c2nc(=O)n(-c3c(C)ccnc3C(C)C)c3nc(-c4c(O)cccc4F)c(F)cc23)[C@@H](C)C1 [AMG510]: −0.19
CC[C@@H]1C(=O)N(C)c2cnc(Nc3ccc(C(=O)N[C@H]4CC[C@H](N5CCN(CC6CC6)CC5)CC4)cc3OC)nc2N1C(C)C [Volasertib]: 3.44

The record that follows has no Response Area shown yet.
### Prompt Given the molecule CN1CC[C@@H](c2c(O)cc(O)c3c(=O)cc(-c4ccc(C(F)(F)F)cc4Cl)oc23)[C@@H]1CO [MEI-522(Voruciclib)] , what is its reported Response Area?
### Response 2.94
